Target: IsoT (Homo sapiens, UniProt P45974)
Sequence (P45974 1-858): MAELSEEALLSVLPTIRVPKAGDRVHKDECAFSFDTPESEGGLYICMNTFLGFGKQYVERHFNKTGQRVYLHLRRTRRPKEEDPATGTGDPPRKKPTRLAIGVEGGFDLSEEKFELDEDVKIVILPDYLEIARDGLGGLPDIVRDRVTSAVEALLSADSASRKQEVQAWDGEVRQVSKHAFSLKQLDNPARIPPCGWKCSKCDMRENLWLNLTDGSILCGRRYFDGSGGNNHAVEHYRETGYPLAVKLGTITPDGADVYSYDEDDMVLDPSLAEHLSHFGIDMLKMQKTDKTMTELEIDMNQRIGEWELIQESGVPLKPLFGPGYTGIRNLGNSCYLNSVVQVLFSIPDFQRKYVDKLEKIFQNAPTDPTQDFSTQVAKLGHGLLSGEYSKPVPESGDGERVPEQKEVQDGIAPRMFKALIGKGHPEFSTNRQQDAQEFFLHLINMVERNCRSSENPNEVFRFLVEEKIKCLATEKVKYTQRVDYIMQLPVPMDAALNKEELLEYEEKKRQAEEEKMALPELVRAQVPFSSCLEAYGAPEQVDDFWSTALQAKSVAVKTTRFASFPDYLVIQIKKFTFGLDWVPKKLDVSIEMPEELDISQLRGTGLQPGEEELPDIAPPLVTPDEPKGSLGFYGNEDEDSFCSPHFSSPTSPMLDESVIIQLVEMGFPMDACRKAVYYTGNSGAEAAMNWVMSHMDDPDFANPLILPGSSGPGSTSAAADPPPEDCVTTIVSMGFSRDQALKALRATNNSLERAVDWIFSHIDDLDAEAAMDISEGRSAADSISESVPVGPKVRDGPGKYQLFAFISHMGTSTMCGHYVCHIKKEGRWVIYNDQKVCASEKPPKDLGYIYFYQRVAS
Reported Property: IC50 (µM)
Answers are plain numbers, in µM.

Past entries and their recorded results:
Cc1cc(C(=O)CN2CCC(O)CC2)c(C)n1-c1ccc(C#N)cc1 [IU1-248] ... 21.5
Cc1cc(C(=O)CN2CCCC2)c(C)n1-c1ccc(F)cc1 [IU1] ... 143

Now, please, on to the next compound.
Problem: Give the measured IC50 of Cc1cc(C(=O)CN2CCCCC2)c(C)n1-c1ccc(Cl)cc1 [IU1-47] .
Solution: 29.1
